tested on: Panc10.05-G12D; assay: Viability assay (CellTiterBlue, 72 hr) Panc10.05; type: cell-based; details: Homo sapiens, Panc1005, GI50, CellTiterBlue, Panc10.05 K-Ras G12D, read-out: 72 hr Cell Viability Panc10.05 (G12D)

{"columns": ["givenSmiles", "valueQualifier", "IC50 / µM"],
 "data": [
  ["COc1cc(Cl)cc(CN2C(=O)CCc3cc(-c4csc(NC(=O)c5oc(C)nc5C)n4)ccc32)c1", ">", 25],
  ["Cn1cc(C(=O)Nc2nc(-c3ccc4c(c3)CCC(=O)N4)cs2)c(C(F)F)n1", "=", 16],
  ["COC(=O)CCN1C(=O)CCc2cc(-c3csc(NC(=O)c4oc(C)nc4C)n3)ccc21", "=", 6],
  ["Cc1nc(C)c(C(=O)Nc2nc(-c3ccc4c(c3)CCC(=O)N4Cc3cccc(N)c3)cs2)o1", "=", 8],
  ["Cc1nn(C)c(C)c1C(=O)Nc1nc(-c2ccc3c(c2)CCC(=O)N3Cc2cccnc2)cs1", "=", 2],
  ["Cc1nn(C)c(C)c1C(=O)Nc1nc(-c2ccc3c(c2)CCC(=O)N3)cs1", ">", 25],
  ["Cc1nc(C)c(C(=O)Nc2nc(-c3ccc4c(c3)CCC(=O)N4CCN(C)C)cs2)o1", "=", 4],
  ["Cc1nn(C(C)C)c(C)c1C(=O)Nc1nc(-c2ccc3c(c2)CCC(=O)N3Cc2cccnc2)cs1", "=", 1.4]
]}

###

Quick reference: pEC50 of the listed items.
system: phospho-Akt in HCC827 (Wild-type); assay: In-Cell Western phospho-Akt, HCC827; format: cell-based; conditions: Homo sapiens, 1 h; HCC827, one hour treatment; read-out: In-Cell Western HCC827 (Wild-type) Akt (P)
pEC50: −log10 of the molar value.

{"columns": ["givenSmiles", "pEC50"],
 "data": [
  ["Cc1nn(C(C)C)c(C)c1C(=O)Nc1nc(-c2ccc3c(c2)CCC(=O)N3)cs1", "< 4.60"],
  ["Cc1nc(C)c(C(=O)Nc2nc(-c3ccc4c(c3)CCC(=O)N4CC3CC3)cs2)o1", 4.89],
  ["COCCN1C(=O)CCc2cc(-c3csc(NC(=O)c4c(C)nn(C(C)C)c4C)n3)ccc21", "< 4.60"],
  ["CCc1nc(C)c(C(=O)Nc2nc(-c3ccc4c(c3)CCC(=O)N4CCOC)cs2)o1", "< 4.60"]
]}

###

Quick reference: log10(IC50) of the listed items.
system: Panc10.05-G12D; assay: Viability assay (CellTiterBlue, 72 hr) Panc10.05; assay type: cell-based; settings: Homo sapiens, Panc1005, GI50, CellTiterBlue, Panc10.05 K-Ras G12D, read-out: 72 hr Cell Viability Panc10.05 (G12D)
valueType: log10(IC50) (log10 of the value in µM)

{"columns": ["compound", "log10(IC50)"],
 "data": [
  ["CCc1nc(C)c(C(=O)Nc2nc(-c3ccc4c(c3)CCC(=O)N4Cc3ccncc3)cs2)o1", 1.18],
  ["Cc1nc(-c2ccc3c(c2)OCC3)sc1C(=O)Nc1nc(-c2ccc3c(c2)CCC(=O)N3)cs1", 0.30],
  ["COc1cccc(CN2C(=O)CCc3cc(-c4csc(NC(=O)c5oc(C)nc5C)n4)ccc32)c1OC", 0.70],
  ["Cn1cc(C(=O)Nc2nc(-c3ccc4c(c3)CCC(=O)N4)cs2)c(C(F)(F)F)n1", 1.36],
  ["COCCN1C(=O)CCc2cc(-c3csc(NC(=O)c4oc(C(C)C)nc4C)n3)ccc21", -0.07],
  ["Cc1nc(C(C)C)sc1C(=O)Nc1nc(-c2ccc3c(c2)CCC(=O)N3)cs1", 1.15],
  ["CCn1nc(C)c(C(=O)Nc2nc(-c3ccc4c(c3)CCC(=O)N4CCOC)cs2)c1C", -0.15],
  ["CCc1nc(C)c(C(=O)Nc2nc(-c3ccc4c(c3)CCC(=O)N4C(C)c3cccnc3)cs2)o1 (centres unmarked)", 0.70]
]}

###

tested on: phospho-ERK in Panc1 (G12D); experiment: In-Cell Western phospho-ERK, Panc1; assay type: cell-based; details: Homo sapiens, PANC-1, 1 h; Panc1, one hour treatment; read-out: In-Cell Western Panc1 (G12D) Erk (P)
pEC50: −log10 of the molar value.
Classify by measured pEC50: Met if it is equal to or exceeds 5, Not met if it is smaller.

{"columns": ["compound", "experimentalSystem", "classification"],
 "data": [
  ["Cc1nc(C2CC2)oc1C(=O)Nc1nc(-c2ccc3c(c2)CCC(=O)N3Cc2cccnc2)cs1 [Compound 72]", "phospho-ERK in Panc1 (G12D)", "Met"],
  ["CCc1nc(C)c(C(=O)Nc2nc(-c3ccc4c(c3)CCC(=O)N4Cc3cncnc3)cs2)o1 [Compound 104]", "phospho-ERK in Panc1 (G12D)", "Not met"],
  ["CCCn1nc(C)c(C(=O)Nc2nc(-c3ccc4c(c3)CCC(=O)N4)cs2)c1C [Compound 55]", "phospho-ERK in Panc1 (G12D)", "Not met"],
  ["CCn1cc(C(=O)Nc2nc(-c3ccc4c(c3)CCC(=O)N4Cc3cccnc3)cs2)c(C)n1 [Compound 115]", "phospho-ERK in Panc1 (G12D)", "Met"],
  ["Cn1cc(C(=O)Nc2nc(-c3ccc4c(c3)CCC(=O)N4)cs2)cn1 [Compound 28]", "phospho-ERK in Panc1 (G12D)", "Not met"],
  ["Cc1nn(C)cc1C(=O)Nc1nc(-c2ccc3c(c2)CCC(=O)N3)cs1 [Compound 21]", "phospho-ERK in Panc1 (G12D)", "Not met"],
  ["Cc1nc(C)c(C(=O)Nc2nc(-c3ccc4c(c3)CCC(=O)N4CCC(=O)N(C)C)cs2)o1 [Compound 103]", "phospho-ERK in Panc1 (G12D)", "Not met"],
  ["COCCN1C(=O)CCc2cc(-c3csc(NC(=O)c4oc(C(C)C)nc4C)n3)ccc21 [Compound 111]", "phospho-ERK in Panc1 (G12D)", "Met"],
  ["Cc1nc(C2CCCCC2)sc1C(=O)Nc1nc(-c2ccc3c(c2)CCC(=O)N3)cs1 [Compound 146]", "phospho-ERK in Panc1 (G12D)", "Met"],
  ["Cn1ncc(C(=O)Nc2nc(-c3ccc4c(c3)CCC(=O)N4)cs2)c1C1CC1 [Compound 35]", "phospho-ERK in Panc1 (G12D)", "Not met"],
  ["Cn1cc(C(=O)Nc2nc(-c3ccc4c(c3)CCC(=O)N4)cs2)c(C(F)F)n1 [Compound 27]", "phospho-ERK in Panc1 (G12D)", "Not met"],
  ["Cc1nc(C2CCCC2)sc1C(=O)Nc1nc(-c2ccc3c(c2)CCC(=O)N3)cs1 [Compound 145]", "phospho-ERK in Panc1 (G12D)", "Met"],
  ["CCn1cc(C(=O)Nc2nc(-c3ccc4c(c3)CCC(=O)N4)cs2)cn1 [Compound 34]", "phospho-ERK in Panc1 (G12D)", "Not met"],
  ["CCc1nc(C)c(C(=O)Nc2nc(-c3ccc4c(c3)CCC(=O)N4Cc3ccncc3)cs2)o1 [Compound 65]", "phospho-ERK in Panc1 (G12D)", "Not met"],
  ["Cc1nc(C)c(C(=O)Nc2nc(-c3ccc4c(c3)CCC(=O)N4CC3CCCCC3)cs2)o1 [Compound 62]", "phospho-ERK in Panc1 (G12D)", "Met"],
  ["Cc1ncccc1C(=O)Nc1nc(-c2ccc3c(c2)CCC(=O)N3)cs1 [Compound 17]", "phospho-ERK in Panc1 (G12D)", "Not met"],
  ["Cc1nn(-c2ccccc2)cc1C(=O)Nc1nc(-c2ccc3c(c2)CCC(=O)N3)cs1 [Compound 31]", "phospho-ERK in Panc1 (G12D)", "Not met"],
  ["CCn1nc(C)c(C(=O)Nc2nc(-c3ccc4c(c3)CCC(=O)N4CCOC)cs2)c1C [Compound 119]", "phospho-ERK in Panc1 (G12D)", "Met"],
  ["CCc1nn(C)cc1C(=O)Nc1nc(-c2ccc3c(c2)CCC(=O)N3)cs1 [Compound 37]", "phospho-ERK in Panc1 (G12D)", "Not met"],
  ["Cc1nc(C)c(C(=O)Nc2nc(-c3ccc4c(c3)CCC(=O)N4CC3CCOC3)cs2)o1 (stereo not drawn) [Compound 67]", "phospho-ERK in Panc1 (G12D)", "Met"],
  ["CC(C)c1cc(C(=O)Nc2nc(-c3ccc4c(c3)CCC(=O)N4)cs2)n(C)n1 [Compound 44]", "phospho-ERK in Panc1 (G12D)", "Not met"],
  ["Cc1nn(C(C)(C)C)c(C)c1C(=O)Nc1nc(-c2ccc3c(c2)CCC(=O)N3)cs1 [Compound 57]", "phospho-ERK in Panc1 (G12D)", "Not met"],
  ["CC(C)c1nn(C)cc1C(=O)Nc1nc(-c2ccc3c(c2)CCC(=O)N3)cs1 [Compound 32]", "phospho-ERK in Panc1 (G12D)", "Not met"],
  ["COCCCN1C(=O)CCc2cc(-c3csc(NC(=O)c4oc(C)nc4C)n3)ccc21 [Compound 96]", "phospho-ERK in Panc1 (G12D)", "Met"],
  ["Cc1nc(C(C)C)sc1C(=O)Nc1nc(-c2ccc3c(c2)CCC(=O)N3)cs1 [Compound 3]", "phospho-ERK in Panc1 (G12D)", "Met"],
  ["Cc1nc(C)c(C(=O)Nc2nc(-c3ccc4c(c3)CCC(=O)N4CCn3cncn3)cs2)o1 [Compound 108]", "phospho-ERK in Panc1 (G12D)", "Not met"],
  ["CCc1cc(C(=O)Nc2nc(-c3ccc4c(c3)CCC(=O)N4)cs2)n(C)n1 [Compound 24]", "phospho-ERK in Panc1 (G12D)", "Not met"],
  ["Cc1cn(C)nc1C(=O)Nc1nc(-c2ccc3c(c2)CCC(=O)N3)cs1 [Compound 23]", "phospho-ERK in Panc1 (G12D)", "Not met"],
  ["Cn1nc(-c2ccccc2)cc1C(=O)Nc1nc(-c2ccc3c(c2)CCC(=O)N3)cs1 [Compound 48]", "phospho-ERK in Panc1 (G12D)", "Not met"],
  ["CCn1cc(C(=O)Nc2nc(-c3ccc4c(c3)CCC(=O)N4)cs2)c(C(F)(F)F)n1 [Compound 39]", "phospho-ERK in Panc1 (G12D)", "Not met"]
]}
